target under test: Nuclear receptor subfamily 1 group D member 1 (Homo sapiens) (UniProt P20393)
Sequence (P20393 whole entry, looked up): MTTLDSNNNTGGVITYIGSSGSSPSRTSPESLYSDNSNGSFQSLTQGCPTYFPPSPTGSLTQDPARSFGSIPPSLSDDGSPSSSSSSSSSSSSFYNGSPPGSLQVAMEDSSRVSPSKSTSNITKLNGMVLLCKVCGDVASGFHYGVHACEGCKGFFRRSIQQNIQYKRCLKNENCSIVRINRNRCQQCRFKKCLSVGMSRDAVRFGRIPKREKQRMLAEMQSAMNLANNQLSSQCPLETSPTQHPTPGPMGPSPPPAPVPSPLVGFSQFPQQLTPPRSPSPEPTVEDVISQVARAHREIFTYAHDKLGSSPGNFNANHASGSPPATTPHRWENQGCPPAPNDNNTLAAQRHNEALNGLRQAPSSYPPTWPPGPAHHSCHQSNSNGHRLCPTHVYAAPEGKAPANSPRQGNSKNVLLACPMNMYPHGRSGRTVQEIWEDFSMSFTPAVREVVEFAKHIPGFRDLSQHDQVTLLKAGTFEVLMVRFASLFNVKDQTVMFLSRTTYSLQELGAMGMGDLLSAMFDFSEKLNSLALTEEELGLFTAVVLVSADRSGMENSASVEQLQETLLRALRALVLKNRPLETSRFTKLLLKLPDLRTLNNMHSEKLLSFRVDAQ
assay name: modulators of Rev-erb alpha DNA binding, dose response, biochemical, FITC-DNA, fluorescence polarization (AID 1259321)
Calls of active or inactive are those of the source.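 The calls were made as follows: active = half-maximal concentration for changing protein binding to DNA, from the fitted dose curve, below 10 micromolar; inactive = the rest.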
Output constraint: value belongs to active, inactive

Worked cases, answers included:
>  <structure smiles string>
O=C(COC(=O)c1sc2ccccc2c1Cl)Nc1ncc(Cl)cc1Cl

>  <class label>
inactive

$$$$
>  <structure smiles string>
COC(=O)c1ccccc1-c1c2ccc(=N)cc-2oc2cc(N)ccc12

>  <class label>
inactive

$$$$
>  <structure smiles string>
Cc1nn(C)c(C)c1N1C(=O)c2cccc3c(N)ccc(c23)C1=O

>  <class label>
active

$$$$
>  <structure smiles string>
CCC(=O)c1cn(CC(=O)Nc2cccc(C)c2)c2ccccc12

>  <class label>
inactive

$$$$
>  <structure smiles string>
COc1ccc(C)cc1NC(=O)c1cc2c(=O)n3ccccc3nc2n1C

>  <class label>
active

$$$$
>  <structure smiles string>
Cc1cccc(C)c1NC(=O)COc1ccccc1C(=O)Nc1ccc(Br)cn1

>  <class label>
active

$$$$

Query string: Any idea what this test logged for Cc1cc2cc(C#N)c(SCC(=O)Nc3nonc3C)nc2cc1C ?
Result string: active

Query string: Again, but for COC(=O)c1cccc(Cn2ccc3ccc(-c4ccc5ccn(C(=O)c6ccccc6OC)c5c4)cc32)c1
Result string: active

Query string: Record: COc1cccc(C(=O)Nc2ccc(-c3nc4ccccc4o3)c(O)c2)c1
Result string: inactive
